Assay: Metabolic stability in human liver mocrosomes
Conditions: liver microsomes
Measured half-life, listed per entry for reference.
Report only the number, with the unit min understood.

Sample answers from the record:
| STRUCTURE AS SMILES | half-life [min] |
| --- | --- |
| O=C1/C(=N/OCCF)c2cccnc2N1Cc1nc2ccccc2n1CCCCO | 44 |
| COCCCn1c(CN2C(=O)/C(=N/OCc3ccncc3)c3ccccc32)nc2ccccc21 | 0.6 |
| CS(=O)(=O)CCCn1c(CN2C(=O)/C(=N/OCc3ccc(S(C)(=O)=O)cc3)c3cnccc32)nc2ccccc21 | 200 |
| N#CCCCn1c(CN2C(=O)/C(=N/OCCF)c3cccnc32)nc2ccccc21 | 55 |
| O=C1/C(=N/OCCF)c2ccncc2N1Cc1nc2ccccc2n1CCCCF | 38 |
| COC(=O)c1ccc(CO/N=C2/C(=O)N(Cc3nc4ccccc4n3CCC(C)C)c3ccccc32)cc1 | 0.6 |
| CS(=O)(=O)c1ccc(CO/N=C2/C(=O)N(Cc3nc4ccccc4n3CCCCO)c3ncccc32)cc1 | 5.3 |
| CO/N=C1/C(=O)N(Cc2nc3ccccc3n2CCCCOC(C)=O)c2ccccc21 | 1.5 |

Ask: Input CO/N=C1/C(=O)N(Cc2nc3ccccc3n2CCCC#N)c2ncccc21 , output reported half-life.
Result: 28
